tested on: KM12 colon; test: NCI tumour cell line growth inhibition, 48 h
Recorded TGI, one value per entry.
OBSERVED_PROPERTY: TGI

{"columns": ["COMPOUND", "ASSAYED_TARGET", "READING"],
 "data": [
  ["COc1ccc(-c2cn[nH]c2-c2cc(OC)c(OC)c(OC)c2)cc1N", "KM12 colon", "> 100 µM"],
  ["CC(C)/C=N\\n1c(N)c(C#N)c(C#N)c1C(C)C", "KM12 colon", "> 100 µM"],
  ["N=C(N)CCCCCCCCC(=N)N", "KM12 colon", "> 100 µM"],
  ["C[N+]1(C)CCC(C#N)(c2ccccc2)CC1", "KM12 colon", "> 100 µM"],
  ["CC1(C)OCC(C2OC(N3O[C@H](CI)C[C@@H]3c3ccccc3)C3OC(C)(C)OC23)O1 (stereo partly drawn)", "KM12 colon", "> 100 µM"],
  ["N=C1C(=N)c2ccccc2-c2ccccc21", "KM12 colon", "3.4 µM"],
  ["COc1cc(-c2coc3c(OC)c(OC4OC(CO)C(O)C(O)C4O)c(OC)cc3c2=O)cc(OC)c1C (stereo not drawn)", "KM12 colon", "28.3 µM"],
  ["CN(C)Cc1ccc(C(=O)Nc2ccc3ncnc(Nc4ccc(Oc5cccc(F)c5)c(Cl)c4)c3c2)cc1", "KM12 colon", "3.21 µM"],
  ["Cc1ccccc1N(C)S(=O)(=O)c1ccccc1[N+](=O)[O-]", "KM12 colon", "> 100 µM"],
  ["O=C(c1ccncc1)n1nc(-c2ccccc2)c(N=Nc2ccc([N+](=O)[O-])cc2)c1-c1ccccc1", "KM12 colon", "> 100 µM"],
  ["CC(=O)N1c2ccccc2Sc2cc(C(O)(C(F)(F)F)C(F)(F)F)ccc21", "KM12 colon", "> 10 µM"],
  ["O=C1CCCC2=C1CC1=C(CCCC1=O)N2c1cccc2ccccc12", "KM12 colon", "> 100 µM"],
  ["Nc1c(-c2nc3ccccc3[nH]2)sc(=S)n1-c1ccccc1", "KM12 colon", "> 100 µM"]
]}

###

test system: T-47D breast; experiment: NCI tumour cell line growth inhibition, 48 h
List of TGI values.

{"columns": ["COMPOUND", "TGI"],
 "data": [
  ["CNC(=O)CCNC(=O)CCC(=O)OC", "> 100 µM"],
  ["C=CCOCn1ccc(=O)[nH]c1=O", "> 100 µM"],
  ["CSc1cc(Cl)c(C)cc1S(=O)(=O)NC(=O)NNc1ccc(F)c(Cl)c1", "> 100 µM"],
  ["C[Si](C)(C)OC1c2[nH]c3ccccc3c2CN2C(=O)CCC12 (stereo not drawn)", "> 100 µM"],
  ["CCN(CC)CCS(=O)c1c2cc(OC)ccc2nc2ccc(OC)cc12 (stereo not drawn)", "4.04 µM"],
  ["CC1(C)N=C(N)N=C(N)N1c1cc(Cl)ccc1Cl", "> 100 µM"],
  ["O=C(NC(=S)Nc1ccc(Cl)cc1)c1ccccc1", "> 100 µM"],
  ["CN(C)CCNc1ccc2c(=O)n(CCN(C)C)c(=O)n3c4ccc(N)cc4c(=O)c1c23", "4.64 µM"]
]}

###

Quick reference for TGI among some compounds
system: MDA-MB-231 breast; experiment: NCI tumour cell line growth inhibition, 48 h
OBSERVED_PROPERTY: TGI

{"columns": ["COMPOUND", "OBSERVED_PROPERTY", "READING"],
 "data": [
  ["COc1ccc(-c2nc(-c3cn(C)c4ncccc34)cs2)cc1", "TGI", "> 100 µM"],
  ["Cc1c2c(n(CCc3ccccc3)c1C)NN=C(C#N)S2(=O)=O", "TGI", "> 100 µM"],
  ["O=c1cc(-c2ccccc2)nc2n1CCN2Cc1ccccc1", "TGI", "> 100 µM"],
  ["CC(=O)c1ccc2c(c1)oc(=O)n2CCN1CCCCC1", "TGI", "> 100 µM"],
  ["CCOC(=O)c1nc2ccc(C(F)(F)F)cc2nc1Oc1ccc(F)cc1", "TGI", "> 100 µM"],
  ["O=C1CCCc2cc3c(cc21)CCC3C(=O)O (stereo not drawn)", "TGI", "> 100 µM"],
  ["S=C(N/N=C/c1ccccn1)Nc1ccccn1", "TGI", "> 100 µM"],
  ["CCCCCc1c2nc(c(CCCCC)c3ccc([nH]3)c(CCCCC)c3ccc([nH]3)c(CCCCC)c3nc1C=C3)C=C2", "TGI", "> 100 µM"],
  ["CC(=O)Nc1ccc2c(C)c3c4ccccc4n(C)c3nc2n1", "TGI", "41.2 µM"],
  ["CCCNC(=S)/N=C\\c1c(O)c2ccccc2oc1=O", "TGI", "> 100 µM"],
  ["COc1ccc(/C=C\\c2cc(OC)c(OC)c(OC)c2)cc1OCC(=O)Nc1nc2ccc(C(F)(F)F)cc2s1", "TGI", "> 100 µM"],
  ["Cc1cc(S(=O)(=O)Nc2nnc(-c3ccccc3)c(-c3ccccc3)n2)c(SCc2ccccc2)cc1Cl", "TGI", "41.9 µM"],
  ["O=C(CCCn1ccnc1[N+](=O)[O-])NCCn1ccnc1", "TGI", "> 100 µM"],
  ["O=C1c2ccccc2-c2c1c1ccccc1c(=O)n2CCNCCNCCn1c2c(c3ccccc3c1=O)C(=O)c1ccccc1-2", "TGI", "5.72 µM"],
  ["CC1C[C@]2(C)C(=S)Nc3ccccc3[C@@H]2Nc2ccccc21 (stereo partly drawn)", "TGI", "26.3 µM"],
  ["CC(C)/C=N\\n1c(N)c(C#N)c(C#N)c1C(C)C", "TGI", "> 100 µM"],
  ["O=C(Nc1nc(C23CC4CC(CC(C4)C2)C3)cs1)c1cc2cc(Br)cc(Br)c2oc1=O", "TGI", "> 100 µM"],
  ["CC1(C)C(=O)N=C(N)N1C(=O)OCc1ccccc1", "TGI", "> 100 µM"],
  ["O=C1C=Cc2ccccc2/C1=C/c1[nH]c(=O)[nH]c1O", "TGI", "84.3 µM"],
  ["COc1nc(C)cc2c(=O)n(-c3ccccc3)n(CCCN3CCN(c4ccc(Cl)cc4)CC3)c(=O)c12", "TGI", "> 50 µM"],
  ["C/C=C(/C)C(=O)O[C@H]1C(C)=C[C@]23C(=O)[C@@H](C=C(COC(C)=O)[C@@H](O)[C@]12O)[C@H]1[C@@H](C[C@H]3C)[C@@]1(C)OC(=O)/C(C)=C\\C", "TGI", "8.18 µM"],
  ["Cc1[nH]c(/C=C2\\C(=O)Nc3ccc(F)cc32)c(C)c1C(=O)NC[C@H](O)CN1CCOCC1", "TGI", "> 10 µM"],
  ["COc1cc(-c2coc3c(OC)c(OC4OC(CO)C(O)C(O)C4O)c(OC)cc3c2=O)cc(OC)c1C (stereo not drawn)", "TGI", "> 54.5 µM"],
  ["CC1(O)/C(=N/O)CC2CC1C2(C)C (stereo not drawn)", "TGI", "> 100 µM"],
  ["N#C/C=C1\\C=CC(O)C(O)C1OC1OC(CO)C(O)C(O)C1O (stereo not drawn)", "TGI", "> 100 µM"],
  ["CN(C)c1ccc2c3c(c(=O)oc2c1)CCC3", "TGI", "> 100 µM"],
  ["Cc1nc2cccc(NCc3ccc(C(=O)NO)cc3)c2c(=O)n1-c1ccccc1", "TGI", "6.79 µM"],
  ["COc1ccc2[nH]c(Cl)c(/C=C3/C(=O)N(C)c4ccccc43)c2c1", "TGI", "> 100 µM"],
  ["N#CS/C(Cl)=C(/C(Cl)=C(Cl)Cl)[N+](=O)[O-]", "TGI", "> 100 µM"],
  ["O=C(O)C1CC(c2ccccc2)=NN1c1ccccc1 (stereo not drawn)", "TGI", "> 100 µM"],
  ["O=C(NC(=S)Nc1ccc(Cl)cc1)c1ccccc1", "TGI", "> 100 µM"],
  ["COc1cc(/C=C/C(=O)c2ccc(Cl)cc2)ccc1OS(=O)(=O)c1ccc(C)cc1", "TGI", "28 µM"],
  ["CSc1cc(Cl)c(C)cc1S(=O)(=O)NC(=O)NNc1ccc(F)c(Cl)c1", "TGI", "> 100 µM"]
]}

###

Below is a list of entries, each paired with its recorded TGI value.
tested on: KM12 colon; experiment: NCI tumour cell line growth inhibition, 48 h
OBSERVED_PROPERTY: TGI

{"columns": ["MOLECULE", "READING"],
 "data": [
  ["O=C(O)C1CC(c2ccccc2)=NN1c1ccccc1 (stereo not given)", "> 100 µM"],
  ["CNC(=O)c1n[nH][nH]c1=O", "> 100 µM"],
  ["CCOC(=O)C(C)c1cc(C2(C)OCCO2)c(C)o1 (stereo not given)", "> 100 µM"],
  ["CC1=NN(C(=O)Cc2ccccc2)C(=O)/C1=C\\C=C\\c1ccccc1", "> 100 µM"],
  ["Cc1[nH]c(/C=C2\\C(=O)Nc3ccc(F)cc32)c(C)c1C(=O)NC[C@H](O)CN1CCOCC1", "> 10 µM"]
]}

Where do these numbers come from? They come from PubChem BioAssay (NCI).
